# Experiment Summary: small-molecule microarray binders of probe aShh, primary screen, biochemical, biotinylated probe, 635/667 nm fluorescence (AID 1114);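 also: probe is biotin-labelled aShh protein from a stem cell growth factor screen; measures binding of labelled protein to compounds printed on the slide; score merges feature fluorescence at 667 nm with signal-to-noise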
# Condition Set: higher = more signal
Attribute Measured: composite z-score
Numbers only.

In the examples that follow, each entry is paired with its recorded composite z-score.
C[C@H]1C2[C@H](Cc3ccccc3)NC(=O)[C@]23C(=O)N[C@H](Cc2ccccc2)C(=O)N2CCC[C@H]2C(=O)NC/C=C\C/C=C/C3[C@@H]2O[C@]12C (stereo partly drawn): -0.0146
CC1(C)C2C=C(C(O)C3C=CC4C(=O)NC(=O)C4N3Nc3ccc(Cl)cc3Cl)C[C@@H]1C2 (stereo partly drawn): 0.275

Provide composite z-score for all items below, preserving their order.
1. C=CCN1C(=O)[C@]2(O[C@H](CCn3cc([C@H](O)c4ccccc4)nn3)[C@@H]([Si](C)(C)c3ccc(OC)cc3)[C@@H]2C)c2ccccc21
2. CCCC[C@@H]1C[C@H]1[C@@H](NC(=O)c1cccs1)c1ccc(-c2ccccc2)cc1
3. CC(C)[Si]1(C(C)C)O[C@@H](c2ccccc2)c2cc(-c3ccc(-c4ccc(Cl)c(Cl)c4)o3)nc(-c3ccccc3)c21
4. C=C[C@H](CO)NS(=O)(=O)c1ccc(Br)cc1
5. CN(C)C(=O)[C@@]1(CCS(=O)(=O)c2ccccc2)COC(c2ccc(OCCCO)cc2)=N1
6. COc1ccc(CCNC(=O)[C@@]2(Sc3ccc(C)cc3)CC(=O)N(C3Cc4ccccc4C3)[C@@H]2c2ccc(CO)cc2I)cc1

Outgoing:
1: -0.0146; 2: -0.138; 3: -0.138; 4: -0.2; 5: 0.414; 6: -0.0234

====

# Experiment Summary: small-molecule microarray binders of probe aNog, primary screen, biochemical, biotinylated probe, 635/667 nm fluorescence (AID 1115);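 also: probe is biotinylated aNog protein used at 0.15 µg/mL for 1 h at 4 C; z-score combines 667 nm fluorescence of each spot with its signal to noise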
# Condition Set: higher = more signal
Hi there, I'd appreciate the recorded composite z-score for every entry that follows.

O=C1c2ccccc2[C@](Cc2ccccc2I)(C(=O)NCCN2CCOCC2)[C@H](c2ccc(CO)cc2)N1C1CCCCC1: 0.0308

For each listed entry, give its composite z-score.
1. CC(C)N1C(=O)[C@@]2(Cc3ccccc31)c1ccccc1C(=O)N(Cc1ccccc1Cl)[C@H]2c1ccc(CO)cc1
2. NCCCCCCNC(=O)[C@@H]1C[C@@H]2C(=O)NCC(=O)N2[C@@H]1c1ccc(O)cc1
3. O=C1OCCC/C=C\[C@H]2OC34C=CCN(Cc5ccccc5)C(=O)[C@H]3N(CCCO)C(=O)[C@@H]4C12 (some centres not stated)

Outgoing:
1: -0.179; 2: -0.566; 3: -0.244

List reported composite z-score for each of these compounds:
1. O=C1C[C@@](C(=O)NCCN2CCOCC2)(c2ccc([N+](=O)[O-])cc2)[C@@H](c2ccc(CO)cc2)N1CC12CC3CC(CC(C3)C1)C2
2. CCOC(=O)C[C@H]1[C@H](OC(=O)c2ccc(C(=O)c3ccccc3)cc2)[C@@H](NC(=O)CC(C)C)c2cc(OCCCO)ccc2N1C(=O)c1ccc2ccccc2n1
3. C=C[C@H](C)[C@@H](OC(=O)Nc1ccc(OC)cc1)c1ccc(O)c2ccccc12

Outgoing:
[-0.377, -0.318, 0.152]

====

# Experiment Summary: small-molecule microarray binders of probe aDKK1, primary screen, biochemical, biotinylated probe, 635/667 nm fluorescence (AID 1099);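 also: score merges 667nm spot fluorescence with signal to noise across triplicate slides; reference of the scale not given here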
# Condition Set: higher = more signal
For each record, write down the corresponding composite z-score.
Answers are plain numbers.

COC(=O)C(CC#Cc1ccc2c(c1)[C@]1(C(=O)N2)[C@H](c2ccc(OCCO)cc2)N2[C@H](c3ccccc3)[C@H](c3ccccc3)OC(=O)[C@H]2[C@@H]1C(=O)Nc1nc2ccccc2s1)C(=O)OC: -0.348

Give measured composite z-score for every item shown.
1. CC(C)C(O)C1C=CC2C(=O)N(c3ccccc3)C(=O)C2N1Nc1ccc([N+](=O)[O-])cc1 (stereo not drawn)
2. CCCC[C@@H]1C[C@H]1[C@@H](NC(=O)C(C)(C)C)c1ccc(C(F)(F)F)cc1
3. CO[C@H]1O[C@H](CO)[C@@H](OC(=O)Nc2ccc(Oc3ccccc3)cc2)[C@H](OC(=O)Nc2ccc3c(c2)OCO3)[C@H]1OC(=O)Nc1ccc2c(c1)OCO2

Outgoing:
[0.814, 0.767, 0.86]

Provide composite z-score values for the following items, in order.
1. Cc1ccc(S[C@]2(C(=O)O)CC(=O)N(C(C)C)[C@@H]2c2ccc(CO)cc2I)cc1
2. O=C1C[C@@](C(=O)NCC(F)(F)F)(c2ccc([N+](=O)[O-])cc2)[C@@H](c2ccc(CO)cc2I)N1C1CCCCC1
3. CN1C(=O)C2C=CC(C(O)c3ccco3)N(Nc3ccccc3)C2C1=O (stereo not drawn)
4. [N-]=[N+]=Nc1ccccc1[C@H]1OC(c2ccc(OCCCO)cc2)=N[C@@]1(CCS(=O)(=O)c1ccccc1)C(=O)NCC(O)CO (stereo partly drawn)

Outgoing:
0.831
0.0918
0.44
0.766
